Reference source for all entries: paper PMC7134359

Target Desc: hMT1 (Homo sapiens, UniProt P48039)
Sequence (P48039 whole entry): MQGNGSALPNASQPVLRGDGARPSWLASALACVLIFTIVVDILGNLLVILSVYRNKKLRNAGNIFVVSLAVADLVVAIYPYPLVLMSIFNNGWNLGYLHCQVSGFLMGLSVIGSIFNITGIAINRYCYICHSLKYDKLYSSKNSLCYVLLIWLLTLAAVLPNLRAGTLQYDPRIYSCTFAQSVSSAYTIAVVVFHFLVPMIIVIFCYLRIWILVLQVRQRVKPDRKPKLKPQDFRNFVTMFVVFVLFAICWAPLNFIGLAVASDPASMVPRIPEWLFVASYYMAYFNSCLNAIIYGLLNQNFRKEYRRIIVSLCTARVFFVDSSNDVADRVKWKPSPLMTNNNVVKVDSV
Assay Explanation: GloSensor cAMP assay
Assay type: cell-based
Measurement Conditions: hMT1 pEC50 (Inverse), inverse agonist; isoproterenol-stimulated cAMP, HEK cells
Measurement Type: EC50 (nM)
Answers are plain numbers, in nM.

Which EC50 value is on record for CC(C)c1ccc(CNc2cccc(-c3nnc[nH]3)c2)cc1 [ZINC157673384] ?
20.9

* * *

Target Desc: mMT1 (Mus musculus, UniProt Q61184)
Sequence (Q61184 whole entry): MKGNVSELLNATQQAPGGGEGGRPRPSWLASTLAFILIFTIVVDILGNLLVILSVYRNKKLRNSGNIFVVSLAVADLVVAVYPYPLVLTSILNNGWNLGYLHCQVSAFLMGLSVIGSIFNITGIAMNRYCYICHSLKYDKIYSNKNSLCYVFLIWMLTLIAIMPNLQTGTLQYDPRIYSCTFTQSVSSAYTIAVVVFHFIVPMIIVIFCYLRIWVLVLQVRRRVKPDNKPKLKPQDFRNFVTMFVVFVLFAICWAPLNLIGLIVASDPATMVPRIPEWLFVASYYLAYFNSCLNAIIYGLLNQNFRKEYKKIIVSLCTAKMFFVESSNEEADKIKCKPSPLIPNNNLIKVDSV
Assay Explanation: GloSensor cAMP assay
Measurement Type: pEC50
Give bare numbers, as −log10 of the molar value.

>>> value_reported("CC(C)c1ccc(CNc2cccc(-c3nnc[nH]3)c2)cc1")
7.00

Turning to the following compound.
Which pEC50 value is on record for Clc1ccc(CNc2cccc(-c3nnc[nH]3)c2)c(Br)c1 ?
7.20
